Data origin, for the record: patent US12037345B2

# Lookup of reported pIC50 keyed by entry
target: SHP2 (Homo sapiens (Human), UniProt Q06124); test: SHP2 Biochemical Assay (DiFMUP conversion, pIRS1-activated); details: Table 19; head prints unit as "-M"
Sequence (Q06124 whole entry): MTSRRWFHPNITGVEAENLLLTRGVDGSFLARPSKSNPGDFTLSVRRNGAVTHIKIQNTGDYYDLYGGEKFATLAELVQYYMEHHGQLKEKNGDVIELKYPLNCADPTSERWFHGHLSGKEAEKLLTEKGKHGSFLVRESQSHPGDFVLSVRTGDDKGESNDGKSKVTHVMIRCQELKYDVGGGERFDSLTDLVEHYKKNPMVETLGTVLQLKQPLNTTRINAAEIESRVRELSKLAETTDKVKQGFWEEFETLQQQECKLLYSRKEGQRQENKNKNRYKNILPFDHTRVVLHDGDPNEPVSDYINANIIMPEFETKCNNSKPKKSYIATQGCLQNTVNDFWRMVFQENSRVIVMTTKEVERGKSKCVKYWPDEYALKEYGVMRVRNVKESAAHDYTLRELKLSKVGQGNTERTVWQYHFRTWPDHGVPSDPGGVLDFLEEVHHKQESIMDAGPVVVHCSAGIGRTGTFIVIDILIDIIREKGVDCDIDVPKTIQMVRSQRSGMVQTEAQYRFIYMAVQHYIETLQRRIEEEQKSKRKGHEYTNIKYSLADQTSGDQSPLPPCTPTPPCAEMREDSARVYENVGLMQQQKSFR
Scale note: pIC50 = -log10(concentration in M).

The examples below pair each entry with its known result.
[[record]]
molecule = "Cn1cc2c(Cl)c(-c3c[nH]c4nc(N5CC6C(N)C6C5)n(C)c(=O)c34)ccc2n1 (stereo not shown)"
measured_on = "SHP2 (Homo sapiens (Human), UniProt Q06124)"
endpoint = "pIC50"
numeric_value = 7.64

[[record]]
molecule = "Cn1cc2c(Cl)c(-c3c[nH]c4nc(N5C6CCCC5CNC6)n(C)c(=O)c34)ccc2n1"
measured_on = "SHP2 (Homo sapiens (Human), UniProt Q06124)"
endpoint = "pIC50"
numeric_value = 8.15

[[record]]
molecule = "CCn1cc2c(Cl)c(-c3c[nH]c4nc(N5[C@@H]6CC[C@H]5C[C@@H](N)C6)n(C)c(=O)c34)ccc2n1"
measured_on = "SHP2 (Homo sapiens (Human), UniProt Q06124)"
endpoint = "pIC50"
numeric_value = 8.12


Exam item: Give pIC50; test system SHP2 (Homo sapiens (Human), UniProt Q06124); molecule Cn1nc2ccc(-c3c[nH]c4nc(N5C6CCC5CNC6)n(C)c(=O)c34)c(Cl)c2n1
Marked response: 7.17

----------
target: SHP2 (Homo sapiens (Human)); assay: SHP2 Biochemical Assay (DiFMUP conversion, pIRS1-activated); details: Table 19; head prints unit as "-M"
Listing of entries alongside the reported pIC50.
API: returns pIC50 as number; meaning -log10 of concentration in mol/L.

[[record]]
compound = "Cn1nc2ccc(-c3n[nH]c4nc(N5C6CCCC5CNC6)n(C)c(=O)c34)c(Cl)c2c1Cl"
numeric_value = 8.05


Exam item: Please report the measured pIC50 for Cn1cc2c(Cl)c(-c3c[nH]c4nc(N5CCC(N)(CO)C5)n(C)c(=O)c34)ccc2n1 (stereo not shown)
Marked response: 7.00

Exam item: # return recorded pIC50 for entry C[C@@H]1CN(c2nc3[nH]cc(-c4ccc5nn(C)cc5c4Cl)c3c(=O)n2C)CCN1
Marked response: 6.64

Exam item: Fill in reported pIC50 for this entry: Cc1cc(-c2c[nH]c3nc(N4[C@@H]5CC[C@H]4C[C@@H](N)C5)n(C)c(=O)c23)c(Cl)c2cn(C)nc12
Marked response: 7.51

Exam item: Please give the documented pIC50 of CCn1cc2c(Cl)c(-c3c[nH]c4nc(N5CCC(C)(CN)CC5)n(C)c(=O)c34)ccc2n1
Marked response: 7.85

Exam item: Give the value of pIC50 reported for the following: Cn1cc2c(Cl)c(-c3n[nH]c4nc(N5CCC6(CCC[C@H]6N)CC5)n(C)c(=O)c34)ccc2n1
Marked response: 7.77

Exam item: Check the records and state pIC50 for CN(C)C(=O)CCn1nc2ccc(-c3c[nH]c4nc(N5C6CCCC5CNC6)n(C)c(=O)c34)c(Cl)c2c1Cl
Marked response: 7.96

----------
target: UniProt Q06124; experiment: SHP2 Biochemical Assay (DiFMUP conversion, pIRS1-activated); conditions: Table 19; head prints unit as "-M"
endpoint: pIC50
pIC50 here is simply -log10 of the concentration when that concentration is written in mol/L.

Exam item: Look up pIC50 of Cn1c(N2[C@@H]3CC[C@H]2C[C@@H](N)C3)nc2[nH]cc(-c3ccc4[nH]ncc4c3Cl)c2c1=O and report it.
Marked response: 7.40

Exam item: Input C[C@H]1CN(c2nc3[nH]cc(-c4ccc5nn(C)cc5c4Cl)c3c(=O)n2C)CCN1 , output reported pIC50.
Marked response: 6.96

Exam item: Output measured pIC50 for this item: CN(C)C(=O)Cc1nc2ccc(-c3c[nH]c4nc(N5C6CCCC5CNC6)n(C)c(=O)c34)c(Cl)c2s1
Marked response: 7.74
